Source listed as the supplement of paper PMC10065799.

# Tested on: AncSZ
# protocol: phosphorylation enrichment, bacterial display (enrichment ratio); higher = better substrate or ligand; peptides without Tyr show the background
Threshold rule: phosphorylation enrichment greater than or equal to 0.9 is yes; below that, no.

# macromolecule.sequence, classification
rows = [
    ("DMLFQYLKQIE [RPAP3_Y569_YF]", "yes"),
    ("ISSLDYISKTK [VAV3_Y294]", "no"),
    ("EREYKYGAHNH [OAT_Y50_Y55H]", "no"),
    ("QADVTYVNTQL [MERTK_Y872_I871T]", "yes"),
    ("FDCGMYSHLQG [LGR4_Y848_YF]", "yes"),
    ("KVGPGYLGSRG [RET_Y826_G830R]", "no"),
    ("DKITQYVEEVR [STX2_Y49_K54R]", "yes"),
    ("TGDFGYRTPGY [TNS2_Y668_A670T]", "no"),
    ("TTSQLYDAVPI [PDPK1_Y9]", "yes"),
    ("GVLKEYVVKVL [CPS1_Y529_G530V]", "yes"),
    ("NLRQQYNSPQE [UMPS_Y432_G429R]", "no"),
    ("FSGLAYTMERS [GLUD1_Y512_H507Y_YF]", "no"),
    ("PARLEYYENEK [IRS1_Y46]", "yes"),
]

* * *

Here the recorded phosphorylation enrichment is given for each entry.
# Test system: c-Abl (mouse)
# protocol: phosphorylation enrichment, bacterial display (enrichment ratio); higher = better substrate or ligand; peptides without Tyr show the background

# macromolecule.sequence, phosphorylation enrichment
rows = [
    ("MGHVNYGAFIN [GLB1_Y485_R482H_YF]", 0.565),
    ("ASLEAYCKHKY [RXRA_Y403]", 0.727),
    ("GLGGGCGGASG [KRT8_Y54_Y54C]", 0.444),
    ("CLAKMYYSAVE [CP_Y539_D544E]", 0.651),
    ("TSSAGYRAAEG [COL6A3_Y543]", 0.309),
    ("AALLNYKAGRD [GRIN2A_Y737_V734L]", 0.454),
    ("VASSLYDILAR [GLB1_Y294]", 0.763),
    ("TGDFGYRTPGY [TNS2_Y668_A670T]", 0.459),
    ("PYSEPYADYGG [APBA1_Y187]", 1.03),
    ("EVTRLYGSVCD [TC2N_Y154_K151T]", 0.895),
    ("VAMDDYLKNVV [LRRK2_Y707_M712V]", 0.518),
    ("AFSLKYDQQTQ [SYTL4_Y366_E367D]", 0.716),
    ("LNEVGYDDIGG [VCP_Y203]", 1.09),
    ("RNEAFYDTFST [EFCAB3_Y372_S370A]", 4.17),
    ("NTQRPYYKGGG [TYROBP_Y111]", 0.427),
    ("KAIDMYLMGCF [GABRB2_Y308]", 1.06),
    ("TRSCKYLLLSM [NF1_Y491_Y489C]", 0.614),
    ("AEEEIYGIFGA [SRCtide_2014]", 3.69),
    ("DVFRQYASLRG [GANAB_Y379_T383R]", 0.459),
    ("IEDPFYGNDSD [ACP1_Y133_YF]", 1.1),
    ("LISVSYDDWDF [GRIN2A_Y281_YF]", 1.64),
    ("SMAKFYASEIA [ACADSB_Y373_YF]", 0.588),
    ("ANFTEYVATSW [CDKL5_Y171_R175S_YF]", 0.892),
    ("QQLQGYIPSNF [FRK_Y99_YF]", 0.899),
    ("VCDSNYSASRW [LRP5_Y1552_D1551N]", 0.507),
    ("ELELLYPDRNS [NYX_Y284_L285P]", 0.799),
    ("KHCEDYVFSFN [DSC1_Y846_C848F_YF]", 0.791),
    ("VDSAHYQLLET [DTX3L_Y385_K386Q]", 0.728),
    ("LADKPYTFEYY [FXN_Y118_D122Y]", 0.802),
]

* * *

# tgt: Grb2 SH2 (UniProt P62993)
# Sequence (P62993 whole entry, looked up): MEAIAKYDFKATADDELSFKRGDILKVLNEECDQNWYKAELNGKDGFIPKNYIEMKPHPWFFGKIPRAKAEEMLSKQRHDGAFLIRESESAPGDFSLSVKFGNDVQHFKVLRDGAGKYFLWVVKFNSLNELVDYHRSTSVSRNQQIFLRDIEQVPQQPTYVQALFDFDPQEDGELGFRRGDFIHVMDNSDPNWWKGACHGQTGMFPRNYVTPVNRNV
# protocol: SH2 binding enrichment of the phosphorylated peptide, bacterial display (enrichment ratio); higher = better substrate or ligand; peptides without Tyr show the background

# macromolecule.sequence, SH2 binding enrichment
measured = [
    ("RHLLRYLSWTV [CLCNKB_Y93_S88R]", 1.55),
    ("DFDNLYFWDQD [ERBB2_Y1221_A1216D_YF]", 0.668),
    ("RNGDRYFKGIV [DCX_Y64]", 0.995),
    ("QMQAAYQKVVA [HBD_Y131]", 1.03),
    ("LQRCKYSHMEP [TEX45_Y434]", 0.64),
    ("RSACTYLAPHL [PLK3_Y615_S618P]", 0.876),
    ("QNTGGYYDLYG [PTPN11_Y62_D61G]", 1),
    ("VNYGAYINDFK [GLB1_Y488]", 10.3),
    ("YKRAVYCIIGR [NUP93_Y391]", 0.906),
    ("GRTNIYKNKKD [SLC26A3_Y520]", 1.07),
    ("CDFKKYGKGLR [ZNF445_Y433_Y428C_YF]", 1.06),
    ("VVQGIYGFHHF [UFSP2_Y285_YF]", 1.03),
    ("ELELLYPDRNS [NYX_Y284_L285P]", 0.831),
    ("ILCTVYAFKMR [GRM3_Y754_T758M]", 0.979),
]

* * *

# tgt: Hck (UniProt P08631)
# Sequence (P08631 whole entry, looked up): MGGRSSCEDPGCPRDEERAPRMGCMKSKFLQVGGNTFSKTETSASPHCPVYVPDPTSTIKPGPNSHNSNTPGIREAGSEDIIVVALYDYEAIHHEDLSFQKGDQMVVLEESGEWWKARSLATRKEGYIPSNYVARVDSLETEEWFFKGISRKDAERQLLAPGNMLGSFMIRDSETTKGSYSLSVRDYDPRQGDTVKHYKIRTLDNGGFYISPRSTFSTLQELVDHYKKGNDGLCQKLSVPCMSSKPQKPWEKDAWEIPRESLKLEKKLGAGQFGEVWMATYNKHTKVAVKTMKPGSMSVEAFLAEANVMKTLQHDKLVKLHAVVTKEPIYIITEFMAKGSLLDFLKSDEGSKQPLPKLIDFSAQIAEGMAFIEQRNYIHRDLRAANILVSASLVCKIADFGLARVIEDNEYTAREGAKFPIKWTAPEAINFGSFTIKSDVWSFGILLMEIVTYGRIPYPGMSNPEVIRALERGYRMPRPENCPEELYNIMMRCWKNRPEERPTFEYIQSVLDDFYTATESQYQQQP
# protocol: phosphorylation enrichment, bacterial display (enrichment ratio); higher = better substrate or ligand; peptides without Tyr show the background
Measured phosphorylation enrichment values are reported for all entries that follow.

# macromolecule.sequence, phosphorylation enrichment
data = [
    ("WASQRYGRELR [BAD_Y110_A107S]", 0.4),
    ("KSPDSYQKILF [ATM_Y1415_L1420F]", 0.406),
    ("GRTNIYKNKKD [SLC26A3_Y520]", 0.447),
    ("LSFSEYASVQV [SIRPA_Y496_P491L]", 2.93),
    ("ALKKPYGVLFK [RPF2_Y59_YF]", 0.632),
    ("MSLRSYGSWEG [APC_Y96_R99W]", 0.459),
    ("EPFELYCEMGS [CBL_Y371_Q367P_YF]", 1.51),
    ("FSCLPCGRLAF [SLC52A2_Y305_Y305C_YF]", 0.389),
    ("GKAFIYASHIV [ZNF573_Y229]", 0.604),
    ("DLDTEYGSGFP [RNASEH2A_Y206_D205E_YF]", 0.654),
    ("MSRLKYPVSQQ [BTK_Y375_I370M]", 0.435),
    ("FGFPGYQCKHF [TIMP3_Y177_S179C_YF]", 0.506),
    ("SLQFEYVHYGG [CDC14A_Y591_S589F]", 0.551),
]

* * *

# tgt: SHP2-C SH2
# protocol: SH2 binding enrichment of the phosphorylated peptide, bacterial display (enrichment ratio); higher = better substrate or ligand; peptides without Tyr show the background
Label t when SH2 binding enrichment >= 0.7; otherwise f.

# macromolecule.sequence, classification
measured = [
    ("FEPWVYSFSYE [PRKDC_Y647]", "f"),
    ("VVAHHYSFAPD [TNS3_Y601_Q600H]", "t"),
    ("DVLPEYKLQAP [KCNH2_Y388]", "f"),
    ("AESPEYVHMYT [FAM111A_Y511]", "f"),
    ("AGDGRYEVLFL [SEMA3F_Y478_A474G]", "f"),
    ("KYLENYYDLKK [MMP3_Y41]", "t"),
    ("TGEKLYQRKEF [ZNF283_Y627]", "t"),
    ("DLDTEYGSGFP [RNASEH2A_Y206_D205E_YF]", "f"),
    ("YISLIYTNYEV [GSTP1_Y109_A114V]", "t"),
    ("PLQKTYNFNML [SLC4A1_Y553_V557M_YF]", "t"),
    ("WQQQSYLDLGI [CTNNB1_Y30_S33L]", "t"),
    ("YLEKYYKFGSR [NNMT_Y25]", "f"),
    ("TGEDWYVLVRV [SF3B3_Y904_G908R]", "f"),
    ("ILGRFYETSSI [PAX2_Y73_G76S_YF]", "t"),
    ("FRVAGYETQGG [TIA1_Y383_YF]", "t"),
    ("EAIMTYVSSFY [ACTN4_Y260_K255E]", "f"),
    ("TRYDEYLEVTK [MAP1A_Y2217_H2214Y]", "f"),
    ("IGLHAYGDQYR [IDH1_Y135_R132L]", "f"),
    ("IDDNQYAYLKA [HNF4A_Y286_E285Q]", "t"),
    ("STKELYEKYMI", "f"),
    ("DENWFYMRAAS [RPS19_Y54_T55M]", "f"),
    ("RNYDTYTAGLS [RHBDD1_Y264]", "f"),
    ("DPLLTYRFPPK [LMNA_Y481]", "t"),
    ("SIKNKYVTALF [KCNH2_Y611_D609N_YF]", "t"),
    ("GGPAEYLRRAS [PKLR_Y38_G37E]", "f"),
    ("YQKDVYNIPPS [NEDD9_Y177_D178N]", "f"),
    ("KSPDSYQKILF [ATM_Y1415_L1420F]", "t"),
    ("SFTDPYAQPPL [KMT2D_Y2378_YF]", "f"),
    ("NFYEYYVDDPL [GCHFR_Y48_P53L]", "t"),
]
